meta.source: ChEMBL document CHEMBL3227993

Assay: Neurotoxicity in po dosed STD-dd mouse assessed as muscle incoordination administered via gavage by rotarod test
Format: toxicity, organism-based, Muscle tissue
Conditions: in vivo
measured-endpoint: TD50 (mg/kg)
Give bare numbers, in mg/kg.

Please look at the items below and tell me TD50 for each one, in order.
1. CCC1(CC)C(=O)NC(=O)N(C)C1=O [METHARBITAL]
2. O=C1NC(=O)C(c2ccccc2)(c2ccccc2)N1 [PHENYTOIN]
3. CNS(=O)(=O)Cc1noc2ccc(F)cc12
4. CCNS(=O)(=O)Cc1noc2ccc(Br)cc12

[87.9, 111, 168, 66]

###

Tested on: Mus musculus
Assay: Anticonvulsant activity in po dosed STD-dd mouse assessed as protection against hind-limb extensor component of maximal electroshock seizure administered via gavage measured 2 hrs after drug dosing
Assay type: functional
measured-endpoint: ED50 (mg/kg)
Give bare numbers, in mg/kg.

// below: answered compounds
NS(=O)(=O)CCCc1noc2ccccc12	39
CN1CCN(S(=O)(=O)Cc2noc3ccc(Br)cc23)CC1	88
CN1CCN(S(=O)(=O)Cc2noc3ccccc23)CC1	57
NS(=O)(=O)Cc1noc2ccccc12 [ZONISAMIDE]	20

Give ED50 for all compounds that follow.
1. CN(C)S(=O)(=O)Cc1noc2ccccc12
2. CCNS(=O)(=O)Cc1noc2ccc(F)cc12
3. CNS(=O)(=O)Cc1noc2ccc(F)cc12
4. CC(C)NS(=O)(=O)Cc1noc2ccc(Cl)cc12
5. CCNS(=O)(=O)Cc1noc2ccccc12
6. CN(C)S(=O)(=O)Cc1noc2ccc(F)cc12
7. CN1CCN(S(=O)(=O)Cc2noc3ccc(F)cc23)CC1

[37, 32, 35, 100, 39, 32, 100]

# per-item lookup of ED50; items listed below
1. O=C1NC(=O)C(c2ccccc2)(c2ccccc2)N1 [PHENYTOIN]
2. CCNS(=O)(=O)Cc1noc2ccc(Br)cc12
3. CCNS(=O)(=O)Cc1noc2ccc(Cl)cc12
4. CNS(=O)(=O)Cc1noc2ccc(Cl)cc12
5. CNS(=O)(=O)Cc1noc2ccccc12

[10, 18, 21, 20, 23]
